- tested_target: UniProtKB Q9XUB2
- Sequence (Q9XUB2 whole entry): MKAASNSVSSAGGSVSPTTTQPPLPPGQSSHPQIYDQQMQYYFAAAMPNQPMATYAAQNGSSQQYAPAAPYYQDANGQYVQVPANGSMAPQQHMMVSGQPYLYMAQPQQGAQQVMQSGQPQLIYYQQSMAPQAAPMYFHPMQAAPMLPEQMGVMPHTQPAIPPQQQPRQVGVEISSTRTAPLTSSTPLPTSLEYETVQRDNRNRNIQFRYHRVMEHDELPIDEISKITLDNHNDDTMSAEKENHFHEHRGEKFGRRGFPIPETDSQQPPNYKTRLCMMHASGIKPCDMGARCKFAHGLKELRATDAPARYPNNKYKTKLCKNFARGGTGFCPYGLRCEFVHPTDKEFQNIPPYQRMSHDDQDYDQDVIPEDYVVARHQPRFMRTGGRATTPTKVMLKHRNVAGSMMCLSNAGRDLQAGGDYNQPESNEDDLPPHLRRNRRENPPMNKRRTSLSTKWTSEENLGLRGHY
- assay_notes: potency of MEX-5 RNA-binding blockers – biochemical, C. elegans, fluorescence polarization, dose response (AID 1960)
Calls of active or inactive are those of the source.
recorded_endpoint: EC50

> print(dat)
                                    compound  recorded.endpoint     experimental.result
 1  Cn1nc(C(F)(F)F)cc1-c1ccc(/C=C(\C#N)C(=O)c2ccccc2)s1               EC50  11.2 µM (inconclusive)
 2     CCC(=O)Nc1cc(C)c(NC(=O)CCc2ccccc2)cn1               EC50    26 µM (inconclusive)
 3  CC1(C)CC(=O)C2=C(C1)OC(N)=C(C#N)C2c1cc2c(cc1[N+](=O)[O-])OCO2 (configuration not stated)               EC50        14.3 µM (active)
 4  O=[N+]([O-])c1cccc(-c2cn3nc(-c4ccccc4)c(-c4ccccc4)nc3n2)c1               EC50          99 µM (active)
 5  Cc1cc(C=C2C(=O)c3ccccc3C2=O)c(C)n1-c1ccc(Cl)cc1               EC50   > 300 µM (not active)
 6  Cc1cccn2c(=O)c3cc(C(=O)NCc4ccco4)c(=N)n(C(C)C)c3nc12               EC50        45.5 µM (active)
 7  CCOCCCNc1nc2nc3ccc(C)cn3c(=O)c2cc1C(=O)NCC1CCCO1 (configuration not stated)               EC50   > 300 µM (not active)
 8  C=CCOc1cccc(C2C(C(=O)c3ccc(C)o3)=C(O)C(=O)N2c2nccs2)c1 (configuration not stated)               EC50       0.851 µM (active)
 9  CC(C)(C)OC(=O)NCCCC1=CC2=CC(=O)C(C)(OC(=O)C3CCCC3)C(=O)C2=CO1 (configuration not stated)               EC50        18.7 µM (active)
10  Cc1n[nH]c(S/C(=C\c2ccc(-c3ccc(C(=O)O)c(Cl)c3)o2)C(=O)O)n1               EC50        1.38 µM (active)
11                 ClCc1nc2ccccc2n1Cc1ccccc1               EC50  3.93 µM (inconclusive)
12  O=C(N/N=C\c1ccc(-c2ccc(Cl)c(Cl)c2)o1)C(=O)N1CCCC1               EC50        29.6 µM (active)

----------
- tested_target: Replicative DNA helicase DnaB (Mycobacterium tuberculosis, UniProt P9WMR3)
- Sequence (P9WMR3 whole entry): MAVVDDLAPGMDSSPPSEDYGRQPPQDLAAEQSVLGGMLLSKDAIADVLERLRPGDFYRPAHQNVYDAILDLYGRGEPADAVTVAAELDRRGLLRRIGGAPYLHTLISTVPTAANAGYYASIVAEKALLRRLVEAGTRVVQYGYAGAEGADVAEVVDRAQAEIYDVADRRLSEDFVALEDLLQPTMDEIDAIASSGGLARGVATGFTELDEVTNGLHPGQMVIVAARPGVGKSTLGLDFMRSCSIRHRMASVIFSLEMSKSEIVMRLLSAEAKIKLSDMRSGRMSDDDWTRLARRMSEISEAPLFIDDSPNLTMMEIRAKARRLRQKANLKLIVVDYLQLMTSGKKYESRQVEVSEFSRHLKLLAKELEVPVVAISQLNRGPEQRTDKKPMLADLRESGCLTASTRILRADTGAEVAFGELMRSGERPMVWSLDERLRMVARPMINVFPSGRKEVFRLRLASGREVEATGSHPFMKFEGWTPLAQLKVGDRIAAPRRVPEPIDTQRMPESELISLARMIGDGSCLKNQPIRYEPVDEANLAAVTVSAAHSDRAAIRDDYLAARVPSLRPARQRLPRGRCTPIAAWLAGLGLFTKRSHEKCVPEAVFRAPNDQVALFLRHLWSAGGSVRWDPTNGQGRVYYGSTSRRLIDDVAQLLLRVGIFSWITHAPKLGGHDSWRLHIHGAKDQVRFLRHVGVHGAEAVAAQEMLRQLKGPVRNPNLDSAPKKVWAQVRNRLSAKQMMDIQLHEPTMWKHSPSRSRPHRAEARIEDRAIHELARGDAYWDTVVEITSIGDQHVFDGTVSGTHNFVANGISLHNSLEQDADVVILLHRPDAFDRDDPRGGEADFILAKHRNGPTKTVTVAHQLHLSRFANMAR
- assay_notes: DnaB intein splicing inhibitors, dose response, biochemical, cell-free fluorescence (AID 449749)
- Format: functional
Calls of active or inactive are those of the source.
Classes used: y = active, n = inactive

> print(dat)
                                   molecule  group
1  CCc1ccc(S(=O)(=O)/N=C2\C=C(Nc3cccc(C(=O)O)c3)C(=O)c3ccccc32)cc1      y
2  CN1CCN(C2=C(Cl)C(=O)N(c3ccc(Cl)cc3)C2=O)CC1      y
3  CCCCCCCCCCOC(=O)Cn1c(COc2cccc(OC)c2)[n+](C)c2ccccc21      y
4  CN1CCc2nc(SCC(=O)Nc3ccc(OC(F)(F)F)cc3)c(C#N)c(-c3cccs3)c2C1      n

----------
- tested_target: Rac GTPase-activating protein 1 (Homo sapiens, UniProt Q9H0H5)
- Sequence (Q9H0H5 whole entry): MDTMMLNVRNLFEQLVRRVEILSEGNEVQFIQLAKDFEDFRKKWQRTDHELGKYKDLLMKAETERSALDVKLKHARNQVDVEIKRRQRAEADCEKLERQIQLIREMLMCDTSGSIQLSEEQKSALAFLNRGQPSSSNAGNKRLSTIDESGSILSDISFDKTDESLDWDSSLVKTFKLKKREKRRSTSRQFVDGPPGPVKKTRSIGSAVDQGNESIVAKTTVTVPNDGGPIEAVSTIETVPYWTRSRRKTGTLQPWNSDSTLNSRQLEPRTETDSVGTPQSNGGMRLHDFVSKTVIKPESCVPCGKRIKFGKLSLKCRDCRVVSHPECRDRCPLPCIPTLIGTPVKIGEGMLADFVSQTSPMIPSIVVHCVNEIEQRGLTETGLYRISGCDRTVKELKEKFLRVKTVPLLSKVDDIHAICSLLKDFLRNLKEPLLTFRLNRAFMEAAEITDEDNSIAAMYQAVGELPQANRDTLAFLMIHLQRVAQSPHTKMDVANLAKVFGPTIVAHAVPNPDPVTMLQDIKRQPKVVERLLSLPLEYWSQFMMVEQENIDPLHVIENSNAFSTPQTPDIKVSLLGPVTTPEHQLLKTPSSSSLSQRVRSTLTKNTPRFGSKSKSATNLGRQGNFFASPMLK
- assay_notes: blockers of MgcRacGAP-driven Rac1 GTP hydrolysis – biochemical, ADP Hunter fluorescence, primary and confirmatory, confirmation (AID 624330)
- Type: functional
Active and inactive are the calls of the source.
Here, each record is paired with measured IC50 data.
recorded_endpoint: IC50

> print(dat)
                                    molecule  experimental.result
 1                    Nc1ccc(OCCc2ccccc2)cc1     31.2 µM (active)
 2  COCc1cc(C)nc(OCC(=O)N/N=C/c2ccc(O)cc2)c1C#N     83.2 µM (active)
 3         Cc1cc(C)c(OCCCCNCc2ccccc2)c(Cl)c1     91.9 µM (active)
 4  O=C(CN1CCN(S(=O)(=O)c2ccccc2F)CC1)N1CCc2ccccc2C1     47.1 µM (active)
 5  COC(=O)c1ccc2c(c1)C(C)(C)C(/C=C/c1ccccc1O)=[N+]2C.[I-]       21 µM (active)
 6            O=c1c2ccccc2sn1-c1ccc(Cl)cc1Cl     31.8 µM (active)
 7   COc1ccc(CNc2ncc(-c3ccc(Br)cc3)n2C)cc1OC     55.6 µM (active)
 8         COc1ccc(/N=C/c2c(O)cc(C)oc2=O)cc1     85.2 µM (active)
 9                 Oc1ccc2c(ccc3[nH]cnc32)c1     43.9 µM (active)
10           CN(C)c1ccc(Cc2ccc(N(C)C)cc2)cc1     73.2 µM (active)
11  O=C(c1c(Cl)cccc1Cl)N1CCN(c2cccc3[nH]ccc23)CC1     50.4 µM (active)
12          CC(C)N1CCN(C(=O)c2cccc(Cl)c2)CC1      295 µM (active)
13          CCN1CCN(CC(=O)Nc2nc3ccccc3s2)CC1     55.7 µM (active)
14    Cc1ccc(/C(C#N)=C\c2ccc(N3CCOCC3)o2)cc1     65.6 µM (active)
15                COc1cc(/C=N/n2nnnc2N)ccc1O     16.9 µM (active)
16          CCOC(=O)c1c(N)sc2c(OC)c(Br)ccc12      203 µM (active)
17  N=C1/C(=C/c2ccc(O)c(O)c2)C(=O)N=C2SC(CC(=O)N3CCCC3)=NN12       66 µM (active)

----------
- tested_target: Fatty acid synthase (Homo sapiens)
- Sequence (P49327 whole entry): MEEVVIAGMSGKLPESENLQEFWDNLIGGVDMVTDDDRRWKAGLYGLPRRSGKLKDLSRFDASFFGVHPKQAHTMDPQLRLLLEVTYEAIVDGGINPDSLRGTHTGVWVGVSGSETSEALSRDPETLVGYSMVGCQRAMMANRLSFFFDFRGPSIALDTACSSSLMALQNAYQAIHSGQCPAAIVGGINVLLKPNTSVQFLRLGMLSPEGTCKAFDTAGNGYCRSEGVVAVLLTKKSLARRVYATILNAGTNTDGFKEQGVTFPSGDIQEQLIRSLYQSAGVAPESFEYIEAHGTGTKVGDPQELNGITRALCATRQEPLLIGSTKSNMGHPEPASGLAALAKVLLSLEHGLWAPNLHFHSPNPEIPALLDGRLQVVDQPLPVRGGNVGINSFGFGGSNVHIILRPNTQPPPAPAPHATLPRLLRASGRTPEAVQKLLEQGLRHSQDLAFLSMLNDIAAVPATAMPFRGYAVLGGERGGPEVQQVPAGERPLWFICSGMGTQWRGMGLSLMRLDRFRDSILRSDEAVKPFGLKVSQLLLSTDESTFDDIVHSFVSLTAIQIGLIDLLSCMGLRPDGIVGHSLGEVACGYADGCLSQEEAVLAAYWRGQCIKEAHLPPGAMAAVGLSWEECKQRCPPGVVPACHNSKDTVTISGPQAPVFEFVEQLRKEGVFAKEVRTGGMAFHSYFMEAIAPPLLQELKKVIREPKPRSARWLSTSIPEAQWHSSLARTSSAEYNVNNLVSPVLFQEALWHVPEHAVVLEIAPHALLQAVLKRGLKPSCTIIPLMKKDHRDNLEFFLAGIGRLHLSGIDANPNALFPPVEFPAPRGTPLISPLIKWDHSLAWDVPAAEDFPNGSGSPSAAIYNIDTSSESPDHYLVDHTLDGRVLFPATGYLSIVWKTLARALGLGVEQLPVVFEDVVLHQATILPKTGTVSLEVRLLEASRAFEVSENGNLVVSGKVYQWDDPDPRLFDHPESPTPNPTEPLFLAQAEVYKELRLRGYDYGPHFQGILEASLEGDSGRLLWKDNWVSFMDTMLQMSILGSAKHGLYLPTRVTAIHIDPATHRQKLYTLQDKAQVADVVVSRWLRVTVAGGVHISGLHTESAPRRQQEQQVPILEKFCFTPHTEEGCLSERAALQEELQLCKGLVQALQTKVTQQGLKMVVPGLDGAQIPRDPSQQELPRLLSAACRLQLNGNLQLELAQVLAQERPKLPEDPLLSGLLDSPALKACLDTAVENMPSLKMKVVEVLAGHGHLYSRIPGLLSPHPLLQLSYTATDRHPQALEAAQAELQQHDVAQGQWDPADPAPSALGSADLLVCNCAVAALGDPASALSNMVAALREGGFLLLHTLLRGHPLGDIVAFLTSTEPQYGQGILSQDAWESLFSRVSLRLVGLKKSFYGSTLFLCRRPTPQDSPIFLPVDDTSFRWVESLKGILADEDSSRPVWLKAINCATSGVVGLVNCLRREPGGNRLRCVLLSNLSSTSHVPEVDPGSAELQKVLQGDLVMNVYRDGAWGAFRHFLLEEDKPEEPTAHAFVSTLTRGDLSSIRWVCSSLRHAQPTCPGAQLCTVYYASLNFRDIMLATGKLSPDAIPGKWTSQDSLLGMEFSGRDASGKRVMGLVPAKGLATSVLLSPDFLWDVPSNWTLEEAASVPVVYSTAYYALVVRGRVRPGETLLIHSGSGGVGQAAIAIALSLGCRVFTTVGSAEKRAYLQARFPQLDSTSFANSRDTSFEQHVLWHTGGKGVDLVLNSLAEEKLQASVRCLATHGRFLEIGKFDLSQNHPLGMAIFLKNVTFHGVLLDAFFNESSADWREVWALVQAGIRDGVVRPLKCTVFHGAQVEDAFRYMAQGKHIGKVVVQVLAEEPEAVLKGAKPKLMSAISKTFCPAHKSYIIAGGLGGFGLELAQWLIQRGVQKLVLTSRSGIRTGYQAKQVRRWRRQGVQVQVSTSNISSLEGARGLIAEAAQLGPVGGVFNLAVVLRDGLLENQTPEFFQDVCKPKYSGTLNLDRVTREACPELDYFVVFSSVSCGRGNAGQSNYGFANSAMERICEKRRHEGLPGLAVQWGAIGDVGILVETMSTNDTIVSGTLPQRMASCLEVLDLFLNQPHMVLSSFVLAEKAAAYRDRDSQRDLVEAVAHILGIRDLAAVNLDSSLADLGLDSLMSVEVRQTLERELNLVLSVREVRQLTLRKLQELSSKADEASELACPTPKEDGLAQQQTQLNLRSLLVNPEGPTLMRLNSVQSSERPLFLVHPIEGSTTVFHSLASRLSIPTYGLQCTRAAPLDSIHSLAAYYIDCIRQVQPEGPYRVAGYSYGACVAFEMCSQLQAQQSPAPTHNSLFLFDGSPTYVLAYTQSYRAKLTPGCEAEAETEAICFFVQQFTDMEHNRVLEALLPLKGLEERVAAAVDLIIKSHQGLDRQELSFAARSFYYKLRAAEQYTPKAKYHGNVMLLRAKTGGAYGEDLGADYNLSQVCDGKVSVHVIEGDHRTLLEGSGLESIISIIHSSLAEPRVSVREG
- assay_notes: inhibition of human FAS-TE enzyme activity – biochemical, endpoint fluorescence intensity, uHTS hits, dose response (AID 624327);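 also: fluorescence from hydrolysis of an O-methyl fluorescein acyl ester substrate by the enzyme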
- Format: functional
The source made the active and inactive calls.
recorded_endpoint: IC50

> print(dat)
                                   molecule  recorded.endpoint  experimental.result
1  O=C(Sc1nnc(-c2ccccc2)o1)N1c2ccccc2Sc2ccccc21               IC50     10.4 µM (active)
2  CCN1Cc2c(/C=C/c3ccccc3)nc3ccc(OC)cc3c2N(c2cccc(Cl)c2)C1               IC50     2.35 µM (active)
3  CC(NC(=O)c1cc([N+](=O)[O-])cc([N+](=O)[O-])c1)c1ccc(-n2ccnc2)cc1 (centres undefined)               IC50     10.1 µM (active)
4  C[C@@H]1CN([C@H](C)CO)S(=O)(=O)c2ccc(C#Cc3ccccc3F)cc2O[C@@H]1CN(C)C(=O)Cc1ccccc1               IC50     3.71 µM (active)

The reported measurements were obtained from ChEMBL document CHEMBL1201862.
